- subject of test: EGFR T790M (Homo sapiens, UniProt P00533, T790M)
- Sequence (P00533 25-1210 T790M): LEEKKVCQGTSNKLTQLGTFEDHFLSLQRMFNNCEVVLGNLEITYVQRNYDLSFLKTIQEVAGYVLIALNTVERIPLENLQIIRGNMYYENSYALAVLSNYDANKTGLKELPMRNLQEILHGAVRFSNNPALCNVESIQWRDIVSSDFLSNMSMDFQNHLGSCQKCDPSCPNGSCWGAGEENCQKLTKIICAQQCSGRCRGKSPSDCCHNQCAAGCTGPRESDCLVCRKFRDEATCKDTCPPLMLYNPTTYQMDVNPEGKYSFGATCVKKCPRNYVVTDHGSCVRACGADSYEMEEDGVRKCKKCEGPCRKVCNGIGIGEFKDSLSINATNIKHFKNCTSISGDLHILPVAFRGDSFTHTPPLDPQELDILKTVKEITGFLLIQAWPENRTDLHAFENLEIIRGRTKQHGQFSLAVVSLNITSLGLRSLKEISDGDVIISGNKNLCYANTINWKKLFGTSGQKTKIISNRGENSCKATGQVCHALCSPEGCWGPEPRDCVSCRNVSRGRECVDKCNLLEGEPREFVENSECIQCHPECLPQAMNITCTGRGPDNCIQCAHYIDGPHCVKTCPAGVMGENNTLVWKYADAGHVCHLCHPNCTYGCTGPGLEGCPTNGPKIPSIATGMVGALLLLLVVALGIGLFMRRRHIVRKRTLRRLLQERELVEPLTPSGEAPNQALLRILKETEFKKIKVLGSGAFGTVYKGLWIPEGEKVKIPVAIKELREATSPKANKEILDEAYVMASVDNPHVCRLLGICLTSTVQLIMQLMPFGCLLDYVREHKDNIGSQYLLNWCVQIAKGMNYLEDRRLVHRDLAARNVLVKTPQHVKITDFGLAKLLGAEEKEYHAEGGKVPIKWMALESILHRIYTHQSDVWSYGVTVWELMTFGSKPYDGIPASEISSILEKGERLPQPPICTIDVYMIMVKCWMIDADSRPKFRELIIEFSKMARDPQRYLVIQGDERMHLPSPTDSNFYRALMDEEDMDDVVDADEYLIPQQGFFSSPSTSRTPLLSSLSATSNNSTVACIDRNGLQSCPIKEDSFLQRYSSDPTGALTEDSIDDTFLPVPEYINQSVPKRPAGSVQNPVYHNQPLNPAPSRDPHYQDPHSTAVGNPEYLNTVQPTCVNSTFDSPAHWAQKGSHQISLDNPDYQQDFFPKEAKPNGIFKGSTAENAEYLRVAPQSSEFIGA
- measurement description: EGFR Enzyme Assay
- Type: biochemical
- experimental parameters: 1 uM compound, read-out: T790M (% inh @ 1 uM)
// inhibition at 1 µM lookup, one value per entry

1) C=CC(=O)Nc1cc(NC2=NC(c3cccc(N(C)C)c3)C3SC=CC3=N2)c(OC)cc1N1CCOCC1 (stereo not shown) :: > 50%
2) C=CC(=O)Nc1cc(Nc2nc(-c3cccc(NC)c3)c3ccsc3n2)c(OC)cc1N(C)CC :: > 50%
3) C=CC(=O)Nc1cc(NC2=NC(c3cccc(NC)c3)C3SC=CC3=N2)c(OC)cc1N(C)CCN1CCOCC1 (stereo not shown) :: < 50%

Now consider the entry below.
I have this compound here, "C=CC(=O)Nc1cc(Nc2nc(-c3cccc(NC)c3)c3sccc3n2)c(OC)cc1OCCN1CCOCC1" , and I need its recorded inhibition at 1 µM.
> 50%

---

- subject of test: EGFR T790M (Homo sapiens, UniProt P00533, T790M)
- measurement description: EGFR Enzyme Assay
- Assay type: biochemical
- experimental parameters: 1 uM compound, read-out: T790M (% inh @ 1 uM)
Each entry below carries its recorded inhibition at 1 µM.

State the recorded inhibition at 1 µM for this entry: C=CC(=O)Nc1cc(Nc2nc(-c3ccccc3N(C)C)c3ccsc3n2)c(OC)cc1N1CCN(C)CC1 [Compound 50]
< 50%

Entry C=CC(=O)Nc1cc(Nc2nc(-c3ccc(NC)cc3)c3sccc3n2)c(OC)cc1N1CCOCC1 [Compound 37] : reported inhibition at 1 µM = ?
> 50%

Query: inhibition at 1 µM; subject: C=CC(=O)Nc1cc(Nc2nc(-c3ccccc3)c3sccc3n2)c(OC)cc1N1CCN(C)CC1 [Compound 26]
< 50%

Return reported inhibition at 1 µM; argument: C=CC(=O)Nc1cc(Nc2nc(-c3c[nH]c4ccccc34)c3sccc3n2)c(OC)cc1N1CCC(N(C)C)CC1 [Compound 2]
> 50%

Requested field: inhibition at 1 µM. Item: C=CC(=O)Nc1cc(Nc2nc(-c3cccc(N(C)C)c3)c3sccc3n2)c(OC)cc1N1CCN(C)CC1 [Compound 24]
< 50%

I have this compound here, C=CC(=O)Nc1cc(Nc2nc(-c3cn(C)c4ccccc34)c3sccc3n2)c(OC)cc1N1CCOCC1 [Compound 36] , and I need its recorded inhibition at 1 µM.
< 50%

What value of inhibition at 1 µM has been recorded for this entry: C=CC(=O)Nc1cc(NC2=NC(c3cccc(N(C)C)c3)C3SC=CC3=N2)c(OC)cc1N1CCN(C)CC1 (stereo not drawn) [Compound 6]
< 50%

Entry C=CC(=O)Nc1cc(NC2=NC(c3ccccc3)C3SC=CC3=N2)c(OC)cc1N1CCN(C)CC1 (stereo not drawn) [Compound 18] has what inhibition at 1 µM?
> 50%

// inhibition at 1 µM lookup, key: C=CC(=O)Nc1cc(N(C)c2nc(-c3cn(C)c4ccccc34)c3sccc3n2)c(OC)cc1N1CCOCC1 [Compound 52]
< 50%

---

- subject of test: BTK (Homo sapiens, UniProt Q06187)
- Sequence (Q06187 whole entry): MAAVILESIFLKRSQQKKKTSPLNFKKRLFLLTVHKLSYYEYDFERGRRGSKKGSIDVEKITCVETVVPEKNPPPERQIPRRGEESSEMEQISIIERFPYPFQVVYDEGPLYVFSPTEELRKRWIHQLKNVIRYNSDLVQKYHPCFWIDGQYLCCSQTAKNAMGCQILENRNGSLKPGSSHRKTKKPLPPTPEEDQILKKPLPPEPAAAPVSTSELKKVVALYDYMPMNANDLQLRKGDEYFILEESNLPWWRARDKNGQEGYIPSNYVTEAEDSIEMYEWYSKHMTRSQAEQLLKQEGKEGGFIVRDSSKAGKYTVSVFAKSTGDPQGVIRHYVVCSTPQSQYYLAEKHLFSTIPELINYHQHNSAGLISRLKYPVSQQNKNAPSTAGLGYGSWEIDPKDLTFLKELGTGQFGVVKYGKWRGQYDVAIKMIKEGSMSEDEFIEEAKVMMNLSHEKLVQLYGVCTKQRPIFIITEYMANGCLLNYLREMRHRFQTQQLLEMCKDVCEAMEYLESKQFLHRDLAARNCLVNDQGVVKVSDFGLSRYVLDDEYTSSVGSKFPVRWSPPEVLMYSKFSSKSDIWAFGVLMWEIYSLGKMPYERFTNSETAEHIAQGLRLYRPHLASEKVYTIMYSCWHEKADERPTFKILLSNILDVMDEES
- measurement description: BTK Enzyme Assay
- Format: biochemical
- experimental parameters: 1 uM compound; read-out: BTK (% inh @ 1 uM)
observed property: inhibition at 1 µM

Observe how each entry below is paired with its result.
1. C=CC(=O)Nc1cc(NC2=NC(c3cccc(NC)c3)C3SC=CC3=N2)c(OC)cc1N(C)CCN1CCOCC1 (centres unmarked) [Compound 9] :: > 30%
2. C=CC(=O)Nc1cc(Nc2nc(-c3c[nH]c4ccccc34)c3sccc3n2)c(OC)cc1N1CCC(N(C)C)CC1 [Compound 2] :: > 30%
3. C=CC(=O)Nc1cc(Nc2nc(-c3c[nH]c4ccccc34)c3sccc3n2)c(OC)cc1N1CCOCC1 [Compound 23] :: > 30%
4. C=CC(=O)Nc1cc(Nc2nc(-c3ccc(NC)cc3)c3sccc3n2)c(OC)cc1N1CCOCC1 [Compound 37] :: > 30%

Tell me reported inhibition at 1 µM for C=CC(=O)Nc1cc(Nc2nc(-c3ccccc3)c3ccsc3n2)c(OC)cc1N(C)CC [Compound 40] , tested with BTK (Homo sapiens, UniProt Q06187).
< 30%

State its inhibition at 1 µM on BTK (Homo sapiens, UniProt Q06187): C=CC(=O)Nc1cc(N(C)c2nc(-c3cn(C)c4ccccc34)c3sccc3n2)c(OC)cc1N(C)CCN(C)C [Compound 54]
< 30%

Write down the reported inhibition at 1 µM of C=CC(=O)Nc1cc(NC2=NC(c3cccc(N(C)C)c3)C3SC=CC3=N2)c(OC)cc1N1CCC(C(=O)N(C)C)CC1 (centres unmarked) [Compound 16] , test system: BTK (Homo sapiens, UniProt Q06187).
> 30%

Item: C=CC(=O)Nc1cc(NC2=NC(c3cccc(N(C)C)c3)C3SC=CC3=N2)c(OC)cc1N(C)CCN1CCOCC1 (centres unmarked) [Compound 8] Test system: BTK (Homo sapiens, UniProt Q06187) Read-out: inhibition at 1 µM Value: ?
> 30%

For BTK (Homo sapiens, UniProt Q06187), provide inhibition at 1 µM of C=CC(=O)Nc1cc(Nc2nc(-c3ccccc3NC)c3ccsc3n2)c(OC)cc1N1CCN(C)CC1 [Compound 43] please.
< 30%

For the record C=CC(=O)Nc1cc(Nc2nc(-c3ccn(C)c3)c3ccsc3n2)c(OC)cc1N1CCN(C)CC1 [Compound 46] , what value of inhibition at 1 µM is listed for BTK (Homo sapiens, UniProt Q06187)?
> 30%

Missing value: inhibition at 1 µM, BTK (Homo sapiens, UniProt Q06187), entry C=CC(=O)Nc1cc(NC2=NC(c3cccc(NC)c3)C3SC=CC3=N2)c(OC)cc1OCCN(C)C (centres unmarked) [Compound 13] . Fill in?
> 30%

Which measured inhibition at 1 µM belongs to C=CC(=O)Nc1cc(NC2=NC(c3cccc(N(C)C)c3)C3SC=CC3=N2)c(OC)cc1N(C)C (centres unmarked) [Compound 4] , tested on BTK (Homo sapiens, UniProt Q06187)?
> 30%

inhibition at 1 µM of C=CC(=O)Nc1cc(Nc2nc(-c3ccccc3)c3ccsc3n2)c(OC)cc1N1CCN(C)CC1 [Compound 42] on BTK (Homo sapiens, UniProt Q06187)?
< 30%

Under BTK (Homo sapiens, UniProt Q06187): inhibition at 1 µM value of C=CC(=O)Nc1cc(Nc2nc(-c3ccccc3)c3sccc3n2)c(OC)cc1N1CCN(C)CC1 [Compound 26] ?
> 30%

What value of inhibition at 1 µM on BTK (Homo sapiens, UniProt Q06187) does C=CC(=O)Nc1cc(Nc2nc(-c3cccc4cc[nH]c34)c3sccc3n2)c(OC)cc1N1CCN(C)CC1 [Compound 45] have?
< 30%

// fetch BTK (Homo sapiens, UniProt Q06187) inhibition at 1 µM for C=CC(=O)Nc1cc(Nc2nc(-c3ccccc3)c3ccsc3n2)c(OC)cc1N(C)CCN(C)C [Compound 32]
> 30%

I'm curious: which inhibition at 1 µM was measured for C=CC(=O)Nc1cc(NC2=NC(c3cccc(NC)c3)C3SC=CC3=N2)c(OC)cc1N1CCC(C(=O)N(C)C)CC1 (centres unmarked) [Compound 17] tested on BTK (Homo sapiens, UniProt Q06187)?
< 30%

Notebook entry, BTK (Homo sapiens, UniProt Q06187) assay: inhibition at 1 µM of C=CC(=O)Nc1cc(Nc2nc(-c3cn(C)c4ccccc34)c3sccc3n2)c(OC)cc1OCCN1CCOCC1 [Compound 34] = ?
< 30%

Query inhibition at 1 µM on BTK (Homo sapiens, UniProt Q06187) for C=CC(=O)Nc1cc(N(C)c2nc(-c3cn(C)c4ccccc34)c3sccc3n2)c(OC)cc1N1CCOCC1 [Compound 52]
< 30%

API: value(readout=inhibition at 1 µM, system=BTK (Homo sapiens, UniProt Q06187)) for record C=CC(=O)Nc1cc(NC2=NC(c3cccc(NC)c3)C3SC=CC3=N2)c(OC)cc1OCCN1CCCCC1 (centres unmarked) [Compound 15]
> 30%

Kindly state the measured inhibition at 1 µM obtained for C=CC(=O)Nc1cc(Nc2nc(-c3cn(C)c4ccccc34)c3sccc3n2)c(OC)cc1N1CCN(C)CC1 [Compound 22] with BTK (Homo sapiens, UniProt Q06187).
> 30%

Given the entry C=CC(=O)Nc1cc(Nc2nc(-c3c[nH]c4ccccc34)c3sccc3n2)c(OC)cc1N1CCN(C)CC1 [Compound 21] , what inhibition at 1 µM was observed with BTK (Homo sapiens, UniProt Q06187)?
> 30%

Kindly state the measured inhibition at 1 µM obtained for C=CC(=O)Nc1cc(NC2=NC(c3cccc(N(C)C)c3)C3SC=CC3=N2)c(OC)cc1N1CCN(C)CC1 (centres unmarked) [Compound 6] with BTK (Homo sapiens, UniProt Q06187).
> 30%

Checklist item: inhibition at 1 µM tested on BTK (Homo sapiens, UniProt Q06187), entry C=CC(=O)Nc1cc(NC2=NC(c3cccc(NC(C)(C)C)c3)C3SC=CC3=N2)c(OC)cc1N(C)C (centres unmarked) [Compound 5] , value?
> 30%

Requested read-out inhibition at 1 µM, target or system BTK (Homo sapiens, UniProt Q06187), entry C=CC(=O)Nc1cc(NC2=NC(c3cccc(N(C)C)c3)C3SC=CC3=N2)c(OC)cc1OCCN(C)C (centres unmarked) [Compound 12]
> 30%

Provide value of inhibition at 1 µM for this record tested with BTK (Homo sapiens, UniProt Q06187): C=CC(=O)Nc1cc(Nc2nc(-c3ccccc3N(C)C)c3ccsc3n2)c(OC)cc1N1CCN(C)CC1 [Compound 50]
> 30%

src = patent US10844074B2
